Source listed as patent US12577206B2.

Molecular target: human FPR2 (Homo sapiens, UniProt P25090)
Sequence (P25090 whole entry): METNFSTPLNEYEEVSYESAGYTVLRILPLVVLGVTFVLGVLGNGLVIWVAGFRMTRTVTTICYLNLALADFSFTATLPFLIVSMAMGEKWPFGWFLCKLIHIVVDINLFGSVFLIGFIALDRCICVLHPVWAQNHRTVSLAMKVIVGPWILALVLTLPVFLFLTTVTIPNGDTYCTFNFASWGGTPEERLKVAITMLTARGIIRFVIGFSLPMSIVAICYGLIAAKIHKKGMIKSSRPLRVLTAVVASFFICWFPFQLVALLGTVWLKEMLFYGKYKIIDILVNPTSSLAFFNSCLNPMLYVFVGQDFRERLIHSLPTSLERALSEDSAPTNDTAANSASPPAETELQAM
Assay: FPR2 cyclic adenosine monophosphate (cAMP) assay
Conditions: CHO cells overexpressing human FPR2; forskolin 5 μM; inhibition of cAMP production; HTRF; read-out: hFPR2 cAMP2 EC50
pEC50: −log10 of the molar value.
PARAMETER MEASURED: pEC50

Sample answers from the record:
> print(dat)
                                   molecule                               target.desc  parameter.measured  observed.result
1  COc1cc(F)c(-c2c(NC(=O)c3ccc(OC(F)F)cc3)c(=O)n(-c3nc(N4CC(C)(O)C4)ccc3C(F)(F)F)n2C)c(F)c1 [Example 138]  human FPR2 (Homo sapiens, UniProt P25090)               pEC50             8.40
2  COc1cc(F)c(-c2c(NC(=O)c3ccc(OC(F)F)cc3)c(=O)n(-c3cccc(C4CC4)c3)n2C)c(F)c1 [Example 111]  human FPR2 (Homo sapiens, UniProt P25090)               pEC50             8.40

I. COc1cc(F)c(-c2c(NC(=O)c3ccc(OC(F)F)cc3)c(=O)n(-c3cc(C)cc(OCC4CCOC4)n3)n2C)c(F)c1 (stereo not shown) [Example 352]
II. COc1cc(N2C[C@@H](C)N(C)[C@@H](C)C2)nc(-n2c(=O)c(NC(=O)c3ccc(OC(F)F)cc3)c(-c3c(F)cc(OC)cc3F)n2C)c1 [Example 93]
// pick larger pEC50 from pair: I vs II Use the label to indicate which entry you chose. II
(II: 8.70, I: 8.22)

1. COc1cc(F)c(-c2c(NC(=O)c3ccc(OC(F)F)cc3)c(=O)n(-c3nc(C4CC4)ccc3C#N)n2C)c(F)c1 [Example 161]
2. COc1cc(OCC2CCOC2)nc(-n2c(=O)c(NC(=O)c3ccc(OC(F)F)cc3)c(-c3c(F)cc(OC)cc3F)n2C)c1 (stereo not shown) [Example 351]
I'm curious whether 1 or 2 has the smaller pEC50 number. Which is it? Use the label to indicate which entry you chose. 1
(1: 8.40, 2: 8.70)

A. COc1cc(F)c(-c2c(NC(=O)c3ccc(OC(F)F)cc3)c(=O)n(-c3nc(NCC(=O)NC4CC4)ccc3C(F)(F)F)n2C)c(F)c1 [Example 229]
B. Cn1c(-c2ccc(OC(F)(F)F)cc2)c(NC(=O)c2ccc(OC(F)F)cc2)c(=O)n1-c1ncccc1C(F)(F)F [Example 304]
// pick larger pEC50 from pair: A vs B Use the label to indicate which entry you chose. A

1. Cn1ncc2cc(-c3c(NC(=O)c4ccc(OC(F)F)cc4)c(=O)n(-c4ncccc4C(F)(F)F)n3C)ccc21 [Example 223]
2. COc1cc(C2CCN(CCO)CC2)nc(-n2c(=O)c(NC(=O)c3ccc(OC(F)F)cc3)c(-c3c(F)cc(OC)cc3F)n2C)c1 [Example 368]
I'm curious whether 1 or 2 has the smaller pEC50 number. Which is it? Use the label to indicate which entry you chose. 1
(1: 6.78, 2: 8.15)

A. CNC(=O)CNc1ccc(C(F)(F)F)c(-n2c(=O)c(NC(=O)c3ccc(OC(F)F)cc3)c(-c3c(F)cc(OC)cc3F)n2C)n1 [Example 238]
B. COc1cc(F)c(-c2c(NC(=O)c3ccc(C(F)(F)F)cc3)c(=O)n(-c3ccccc3)n2C)c(F)c1 [Example 5]
C. COc1cc(F)c(-c2c(NC(=O)c3ccc(OC(F)F)cc3)c(=O)n(-c3nc(Cl)ccc3N3CC(C)(O)C3)n2C)c(F)c1 [Example 203]
// ranking: key=pEC50, reverse=True Give your ranking as a list of the labels in the requested order. A, C, B

I. COc1cc(F)c(-c2c(NC(=O)c3ccc(OC(F)F)cc3)c(=O)n(-c3nc(N4CCNC(=O)C4)ccc3C(F)(F)F)n2C)c(F)c1 [Example 214]
II. COc1cc(F)c(-c2c(NC(=O)c3ccc(OC(F)F)cc3)c(=O)n(-c3cc(C(F)F)ccn3)n2C)c(F)c1 [Example 76]
// pick larger pEC50 from pair: I vs II Use the label to indicate which entry you chose. I

A. COc1cc(C2CCN(S(C)(=O)=O)CC2)nc(-n2c(=O)c(NC(=O)c3ccc(OC(F)F)cc3)c(-c3c(F)cc(OC)cc3F)n2C)c1 [Example 366]
B. COc1cc(F)c(-c2c(NC(=O)c3ccc(Cl)cc3)c(=O)n(-c3ccc(C)cn3)n2C)c(F)c1 [Example 48]
C. COc1cc(-n2c(=O)c(NC(=O)c3ccc(OC(F)F)cc3)c(-c3c(F)cc(OC)cc3F)n2C)nc(C2(O)CCC2)c1 [Example 100]
D. COc1cc(F)c(-c2c(NC(=O)c3ccc(OC(F)(F)F)cc3)c(=O)n(-c3ccc(F)cc3)n2C)c(F)c1 [Example 10]
// ranking: key=pEC50, reverse=True Give your ranking as a list of the labels in the requested order. C, A, D, B
(C: 8.70, A: 8.15, D: 7.85, B: 7.37)

###

Target: human FPR2 (Homo sapiens, UniProt P25090)
Test: FPR2 cyclic adenosine monophosphate (cAMP) assay
Conditions: CHO cells overexpressing human FPR2; forskolin 5 μM; inhibition of cAMP production; HTRF; read-out: hFPR2 cAMP2 EC50
PARAMETER MEASURED: EC50 (nM)

Sample answers from the record:
> print(dat)
                                   molecule  observed.result
1  COc1cc(F)c(-c2c(NC(=O)c3ccc(OC(F)F)cc3)c(=O)n(-c3cc(Cl)cc(N4C[C@H]5C[C@@H]4CN5)c3)n2C)c(F)c1 [Example 149]                6
2  COc1cc(OCC(C)(C)O)nc(-n2c(=O)c(NC(=O)c3ccc(OC(F)F)cc3)c(-c3c(F)cc(OC)cc3F)n2C)c1 [Example 322]                7

I. CNc1ccc(Cl)nc1-n1c(=O)c(NC(=O)c2ccc(OC(F)F)cc2)c(-c2c(F)cc(OC)cc2F)n1C [Example 215]
II. COc1cc(OCC(C)(C)F)nc(-n2c(=O)c(NC(=O)c3ccc(OC(F)F)cc3)c(-c3c(F)cc(OC)cc3F)n2C)c1 [Example 385]
// pick larger EC50 from pair: I vs II Use the label to indicate which entry you chose. I

I. COc1cc(F)c(-c2c(NC(=O)c3ccc(Cl)cc3)c(=O)n(-c3nc(N4CC(OC(C)C)C4)ccc3C(F)(F)F)n2C)c(F)c1 [Example 141]
II. COc1cc(F)c(-c2c(NC(=O)c3ccc(OC(F)F)cc3)c(=O)n(-c3cc(C)cc(OCCO)n3)n2C)c(F)c1 [Example 331]
III. COc1cc(F)c(-c2c(NC(=O)c3ccc(OC(F)F)cc3)c(=O)n(-c3nc(Nc4cn(C)nc4C)ccc3C(F)(F)F)n2C)c(F)c1 [Example 228]
Arrange the 3 entries by EC50 so the values rise. Give your ranking as a list of the labels in the requested order. III, II, I
(III: 1 nM, II: 3 nM, I: 7 nM)

P. COc1cc(F)c(-c2c(NC(=O)c3ccc(OC(F)F)cc3)c(=O)n(-c3nc(N4CCN(CC(F)(F)F)CC4)ccc3C(F)(F)F)n2C)c(F)c1 [Example 269]
Q. COc1cc(-n2c(=O)c(NC(=O)c3ccc(OC(F)F)cc3)c(-c3c(F)cc(OC)cc3F)n2C)cc(C(F)(F)F)c1 [Example 117]
I'm curious whether P or Q has the smaller EC50 number. Which is it? Use the label to indicate which entry you chose. P

###

Molecular target: human FPR1 (Homo sapiens)
Sequence (P21462 whole entry): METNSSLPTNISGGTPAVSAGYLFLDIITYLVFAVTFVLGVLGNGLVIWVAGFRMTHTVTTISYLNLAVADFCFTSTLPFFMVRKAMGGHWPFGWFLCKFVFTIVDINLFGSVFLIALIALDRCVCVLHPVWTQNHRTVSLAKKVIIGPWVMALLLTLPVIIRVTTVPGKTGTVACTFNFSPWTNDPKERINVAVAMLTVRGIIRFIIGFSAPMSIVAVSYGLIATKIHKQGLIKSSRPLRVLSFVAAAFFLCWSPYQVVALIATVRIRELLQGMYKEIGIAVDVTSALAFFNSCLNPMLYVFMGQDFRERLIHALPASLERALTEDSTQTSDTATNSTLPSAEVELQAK
Assay: FPR1 cyclic adenosine monophosphate (cAMP) assay
Conditions: CHO cells overexpressing human FPR1; forskolin 10 μM; inhibition of cAMP production; HTRF; read-out: hFPR1 cAMP2 EC50
Measured EC50, listed per entry for reference.

Sample answers from the record:
> print(dat)
                                   compound                target.desc  observed.result
1  COc1cc(F)c(-c2c(NC(=O)c3ccc(OC(F)F)cc3)c(=O)n(-c3nc(Cl)ccc3N3CC4(COC4)C3)n2C)c(F)c1  human FPR1 (Homo sapiens)          > 10 µM
2  CNc1ccc(C(F)(F)F)c(-n2c(=O)c(NC(=O)c3ccc(OC(F)F)cc3)c(-c3c(F)cc(OC)cc3F)n2C)n1  human FPR1 (Homo sapiens)           > 5 µM
3  COc1cc(OCC2(CO)COC2)nc(-n2c(=O)c(NC(=O)c3ccc(OC(F)F)cc3)c(-c3c(F)cc(OC)cc3F)n2C)c1  human FPR1 (Homo sapiens)          > 10 µM

State recorded EC50 with human FPR1 (Homo sapiens), entry COc1cc(F)c(-c2c(NC(=O)c3ccc(OC(F)F)cc3)c(=O)n(-c3nccc(N4CCN(C)CC4)c3C(F)(F)F)n2C)c(F)c1 , no comment. > 5 µM

State recorded EC50 with human FPR1 (Homo sapiens), entry COc1cc(OC2CCOC2)nc(-n2c(=O)c(NC(=O)c3ccc(OC(F)F)cc3)c(-c3c(F)cc(OC)cc3F)n2C)c1 (stereo not drawn) [Example 355] , no comment. > 10 µM
